# Assayed system: T1, TNFR1 (Homo sapiens, UniProt P19438)
# T1 chain: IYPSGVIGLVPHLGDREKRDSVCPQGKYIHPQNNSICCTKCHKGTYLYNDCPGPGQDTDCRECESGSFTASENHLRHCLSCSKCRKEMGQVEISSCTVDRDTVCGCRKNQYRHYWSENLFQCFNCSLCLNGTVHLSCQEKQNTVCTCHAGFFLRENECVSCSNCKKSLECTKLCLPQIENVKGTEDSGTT
# Test: yeast display SC50

| Binder | apparent Kd (screen), nM |
| --- | --- |
| P79D (designed binder) MTLQELLREEALRRAEAEAFRYALELLAEKFPEQKEYLLDLAEEIESQIRSLSGVDVEDVRKFLDKEWAWVKELLAEHDAELAEVEAARAARLAELRAEVEAKVAA | 0.539 |
| E77P (designed binder) MTLQELLREEALRRAEAEAFRYALELLAEKFPEQKEYLLDLAEEIESQIRSLSGVDVEDVRKFLDKEWAWVKELLAPHPAELAEVEAARAARLAELRAEVEAKVAA | 0.405 |
| R92D (designed binder) MTLQELLREEALRRAEAEAFRYALELLAEKFPEQKEYLLDLAEEIESQIRSLSGVDVEDVRKFLDKEWAWVKELLAEHPAELAEVEAARAADLAELRAEVEAKVAA | 0.718 |
| R21W (designed binder) MTLQELLREEALRRAEAEAFWYALELLAEKFPEQKEYLLDLAEEIESQIRSLSGVDVEDVRKFLDKEWAWVKELLAEHPAELAEVEAARAARLAELRAEVEAKVAA | 0.49 |

// provenance: paper PMC12416549
